# assay_info: Cytotoxicity against human HepG2 cells after 24 hrs by neutral red cell viability assay
# Assay type: cell-based
experimental_endpoint: CC50 at 24 h (µg/mL)
Give bare numbers, in µg/mL.

Just so you know, measured CC50 at 24 h for CN(Cc1ccccc1)C(=O)Cn1sc2ccccc2c1=O came out at 62.2

---

# Test system: Candida albicans
# assay_info: Antifungal activity against Candida albicans CAF-2 after 24 hrs by broth microdilution method
# Type: functional
# condition_context: CAF-2, 24 h
Lab note: anything with MIC50 below 6 µg/mL is marked Satisfied; values at 6 µg/mL or higher are marked Not satisfied.

Past entries and their recorded results:
C[C@H](NC(=O)Cn1sc2ccccc2c1=O)c1ccccc1: Not satisfied
COC(=O)c1ccccc1NC(=O)Cn1sc2ccccc2c1=O: Not satisfied
CC(C(=O)N(C)Cc1ccccc1)n1sc2ccccc2c1=O (racemic): Not satisfied
O=C(Cn1sc2ccccc2c1=O)NCCc1ccccc1: Not satisfied
CCN(CC)C(=O)Cn1sc2ccccc2c1=O: Not satisfied

Incoming: Quick check: does O=C(Cn1sc2ccccc2c1=O)NC12CC3CC(CC(C3)C1)C2 have MIC50 under 6 µg/mL?
Outgoing: Satisfied

Incoming: Quick check: does OC(Cn1cncn1)(Cn1cncn1)c1ccc(F)cc1F have MIC50 under 6 µg/mL?
Outgoing: Satisfied

---

# System: Candida albicans
# assay_info: Antifungal activity against Candida albicans CAF-2 after 24 hrs by broth microdilution method
# Type: functional
# condition_context: CAF-2, 24 h
experimental_endpoint: MIC50 (µg/mL)
One number for each entry, in µg/mL.

Example entries begin here.
COc1cccc(CNC(=O)Cn2sc3ccccc3c2=O)c1: 3.2
CN(Cc1ccccc1)C(=O)Cn1sc2ccccc2c1=O: 1.6
O=C(Cn1sc2ccccc2c1=O)Nc1ccccc1: 6.4
O=C(Cn1sc2ccccc2c1=O)NCc1ccc(F)cc1: 1.6
COc1ccc(CNC(=O)Cn2sc3ccccc3c2=O)cc1: 3.2
CCN(Cc1ccccc1)C(=O)Cn1sc2ccccc2c1=O: 6.4
C[C@@H](NC(=O)Cn1sc2ccccc2c1=O)c1ccccc1: 6.4
COC(=O)c1cccc(NC(=O)Cn2sc3ccccc3c2=O)c1: 12.5

Just so you know, measured MIC50 for O=C(Cn1sc2ccccc2c1=O)NCc1ccccc1 came out at 3.2

Reference for the values: ChEMBL document CHEMBL1828604
